Target: Autotaxin (Homo sapiens, UniProt Q13822)
Assay: Inhibition of human ATX using FS-3 as substrate measured every 5 mins for 30 mins by fluorescence assay
IC50 strictly less than 500 nM = label 1. Otherwise label 0.

| compound | assigned.label |
| --- | --- |
| O=C(O)c1cc(-c2csc(NC3CCN(C(=O)OCc4ccccc4)C3)n2)ccc1O (stereo unspecified) | label 0 |
| CN(c1ccc2c(c1)CS(=O)(=O)N2)c1nc(-c2ccc(O)c(C(=O)O)c2)cs1 | label 0 |
| CN(c1ccc(S(N)(=O)=O)cc1)c1nc(-c2ccc(O)c(C(=O)O)c2)cs1 | label 0 |
| NS(=O)(=O)c1cc(-c2csc(C(=O)NC3CCN(C(=O)OCc4cc(Cl)cc(Cl)c4)CC3)n2)ccc1Cl | label 1 |
| O=C(NC1CCN(C(=O)OCc2cc(Cl)cc(Cl)c2)CC1)c1nc(-c2ccc(CP(=O)(O)O)cc2)cs1 | label 1 |
| O=C(Nc1cccc(Nc2nc(-c3ccc(O)c(O)c3)cs2)c1)OCc1ccccc1 | label 0 |
| NS(=O)(=O)c1cc(-c2csc(C(=O)Nc3cccc(C(=O)O)c3)n2)ccc1Cl | label 0 |
| O=C(OCc1ccccc1)N1CCC(Nc2nc(-c3ccc(CP(=O)(O)O)cc3)cs2)CC1 | label 1 |
| CN(c1ccc(S(N)(=O)=O)cc1)c1nc(-c2ccc(O)c(C(N)=O)c2)cs1 | label 0 |
| CN(c1ccc(S(N)(=O)=O)cc1)c1nc(-c2ccc(O)c(CO)c2)cs1 | label 0 |
| O=C(NC1CCN(C(=O)OCc2cc(Cl)cc(Cl)c2)CC1)c1nc(-c2ccc(Cl)cc2)cs1 | label 1 |
| O=C(Cc1cccc(Nc2nc(-c3ccc(O)c(O)c3)cs2)c1)NCc1ccccc1 | label 0 |
| NS(=O)(=O)c1cc(-c2csc(NC3CCN(C(=O)OCc4ccccc4)CC3)n2)ccc1Cl | label 0 |
| CS(=O)(=O)Nc1ccc(-c2csc(N(Cc3ccccn3)c3ccc4nn[nH]c4c3)n2)cc1 | label 0 |
| COc1ccc(-c2csc(C(=O)NC3CCN(C(=O)OCc4cc(Cl)cc(Cl)c4)CC3)n2)cc1 | label 1 |
